Answer each item with its documented protein stability index.
assay: protein stability index of a GFP-peptide fusion (yeast GPS) (PSI 1-4); higher = more stable; sorted into four equal gates, so the index is relative within each strain; settings: ubr1∆
// no unit string in output, number only

So what's the measured protein stability index for this one? KWKPVLSHIVYFLVLSP [RPN5]
1.15

Repeat for the following sequence: LQEKISTELNNKQYELF [SWI1]
2.77

Repeat for the following sequence: QELCYPDENHDNTSHDE [BRN1]
3.35

Repeat for the following sequence: VEASRRRRSSTNKSKRP [MED1]
3.28

Repeat for the following sequence: IASTLGPSAMRLSRCIR [RPC82]
2.4

Repeat for the following sequence: QASDPSKKKKNIKKKDT [RPC53]
3.3

Repeat for the following sequence: GNIISSDKTIVPTSIQT [SIN4]
2.77

Repeat for the following sequence: KIITSRPLQKIMLLQLE [SIN4]
1.63

Repeat for the following sequence: SVDDVLSALDHIGHSAL [DPB4]
3.46

Repeat for the following sequence: RCIGDSDNVSFEIQGVP [YMR129W/POM152]
3.35

Repeat for the following sequence: FNRDNKVSPAAAAKKAL [RPS26B]
2.79

Repeat for the following sequence: DLSLLGYCDDIAAMVAQ [SIR2]
2.24

Repeat for the following sequence: DIVSIDIEEPQLDLLDD [MTW1]
3.16

Repeat for the following sequence: NLPKDKSGIPEFTPADP [SSN2]
3.47
